Experiment: Acid induced degradation at pH 2.5, gas chromatography
Assay type: physicochemical
Conditions: DHA preparation without lycopene
readout type: GC peak Area, %, Baseline (%)
Answer format: numeric, % implied, no suffix.

Recorded GC peak Area, %, Baseline, per entry:
{"compound": "CCC=CCC=CCC=CCC=CC/C=C\\CCCC(=O)O [cis-5,8,11,14,17-eicosapentaenoic]", "unit of measure": "%", "GC peak Area, %, Baseline": 1.07}
{"compound": "CCC=CCC=CCC=CCC=CCC=CC/C=C\\CCC(=O)O [cis-4,7,10,13,16,19-Docosahexaenoic]", "unit of measure": "%", "GC peak Area, %, Baseline": 42.63}
{"compound": "CCCCCC/C=C\\CCCCCCCC(=O)O [Palmitoleic]", "unit of measure": "%", "GC peak Area, %, Baseline": 0.11}
{"compound": "CCCCCCCCCCCCCCC(=O)O [Pentadecanoic]", "unit of measure": "%", "GC peak Area, %, Baseline": 0.29}

Now look at this entry.
# input Given the compound CCCCCCCCCCCCCCCCCCCCCC(=O)O [Behenic] , what is its reported GC peak Area, %, Baseline?
# output 0.10

* * *

Reported GC peak Area, %, Baseline values for the following molecules.
Assay: Acid induced degradation at pH 2.5, gas chromatography
Assay type: physicochemical
Details: DHA preparation with lycopene 1 mg per 1 g of DHA
Numeric only. Scale: %

As a guide, the following entries are already answered.
{"molecule": "CCC=CCC=CCC=CCC=CCC=CC/C=C\\CCC(=O)O [cis-4,7,10,13,16,19-Docosahexaenoic]", "unit of measure": "%", "GC peak Area, %, Baseline": 42.55}
{"molecule": "CCCCCCCC/C=C/CCCCCCCC(=O)O", "unit of measure": "%", "GC peak Area, %, Baseline": 0.26}

# input Give the measured GC peak Area, %, Baseline of CCCCCCCCCCCC(=O)O .
# output 0.14

* * *

Test: Acid induced degradation at pH 2.5, gas chromatography
Assay type: physicochemical
Details: DHA preparation with lycopene 1 mg per 1 g of DHA
readout type: GC peak Area, Baseline

{"compound": "CCC=CCC=CCC=CCC=CC/C=C\\CCCC(=O)O [cis-5,8,11,14,17-eicosapentaenoic]", "GC peak Area, Baseline": "9,937"}
{"compound": "CCC=CCC=CCC=CCC=CCC=CC/C=C\\CCC(=O)O [cis-4,7,10,13,16,19-Docosahexaenoic]", "GC peak Area, Baseline": "409,974"}
{"compound": "CCCCC/C=C\\C/C=C\\C/C=C\\CCCCC(=O)O", "GC peak Area, Baseline": "2,627"}
{"compound": "CCCC/C=C\\CCCCCCCC(=O)O", "GC peak Area, Baseline": "1,662"}
{"compound": "CCCCCCCC/C=C/CCCCCCCC(=O)O", "GC peak Area, Baseline": "2,537"}
{"compound": "CCCCC/C=C\\C/C=C\\C/C=C\\C/C=C\\CCCC(=O)O", "GC peak Area, Baseline": "7,859"}
{"compound": "CCCCCCCCCCCCCCCC(=O)O", "GC peak Area, Baseline": "171,664"}

Okay, now this compound:
# input What value of GC peak Area, Baseline has been reported for the following compound? CCCCCC/C=C\CCCCCCCC(=O)O
# output 1,598

* * *

Experiment: Acid induced degradation at pH 2.5, gas chromatography
Format: physicochemical
Conditions: DHA preparation with lycopene 1 mg per 1 g of DHA
Experimental: Briefly, 100 μl of serum and 2 ml of the stock solution were combined in screw-capped glass tubes. The tubes were capped and heated at 100 C for 60 min. The tubes were allowed to cool down to the room temperature and were extracted twice with 1 ml hexane. […] Temperature program, initial: 130 C with a 4 min hold; ramp: 4 C/min to 280 C with a 2 min hold. […] DHA concentrations were calculated on the basis of the standard concentrations. […]
readout type: GC peak Area, Baseline

These recorded examples may help you get a feel for the data.
{"compound": "CCCCCCCCCCCC(=O)O [Lauric]", "GC peak Area, Baseline": "1,354"}
{"compound": "CCCCCCCCCCCCCCCCCCCCCCCC(=O)O [Lignoceric]", "GC peak Area, Baseline": "1,613"}
{"compound": "CCCCCCCCCCCCCC(=O)O [Myristic]", "GC peak Area, Baseline": "61,814"}

# input Give the measured GC peak Area, Baseline of CCCCCCCCCCCCCCCCCC(=O)O [Stearic] .
# output 6,673

# input Request the reported GC peak Area, Baseline associated with CCCCC/C=C\C/C=C\CCCCCCCC(=O)O [Linoleic]
# output 12,328

# input Look up GC peak Area, Baseline for this compound: CCCCCCCCCCCCCCC(=O)O [Pentadecanoic]
# output 2,511

* * *

Assay: Acid induced degradation at pH 2.5, gas chromatography
Assay type: physicochemical
Details: DHA preparation without lycopene
Reported GC peak Area, After 2 hours at pH 2.5 values are given for each entry in this list.

Observe how each entry below is paired with its result.
{"compound": "CCCCCC/C=C\\CCCCCCCC(=O)O [Palmitoleic]", "GC peak Area, After 2 hours at pH 2.5": "1,278"}
{"compound": "CCCCCCCCCCCCCCCC(=O)O [Palmitic]", "GC peak Area, After 2 hours at pH 2.5": "118,649"}
{"compound": "CCCCCCCCCCCCCCC(=O)O [Pentadecanoic]", "GC peak Area, After 2 hours at pH 2.5": "1,716"}
{"compound": "CCCC/C=C\\CCCCCCCC(=O)O [Myristoleic]", "GC peak Area, After 2 hours at pH 2.5": "1,197"}
{"compound": "CCCCCCCCCCCCCCCCCCCCCCCC(=O)O [Lignoceric]", "GC peak Area, After 2 hours at pH 2.5": 1162}

# input Dear colleague, I am looking for the recorded GC peak Area, After 2 hours at pH 2.5 of the following compound: CCCCC/C=C\C/C=C\C/C=C\CCCCC(=O)O [gamma-Linolenic]
# output 1,851

# input Fill blank: measured GC peak Area, After 2 hours at pH 2.5 of the compound CCCCCCCCCCCCCC(=O)O [Myristic] is ____.
# output 43,118

* * *

Test: Acid induced degradation at pH 2.5, gas chromatography
Assay type: physicochemical
Conditions: DHA preparation without lycopene
Items are presented alongside their recorded GC peak Area, %, Baseline.
Number in %, nothing else.

{"molecule": "CCCC/C=C\\CCCCCCCC(=O)O [Myristoleic]", "GC peak Area, %, Baseline / %": 0.18}
{"molecule": "CCCCCCCC/C=C/CCCCCCCC(=O)O [Elaidic]", "GC peak Area, %, Baseline / %": 0.20}
{"molecule": "CCCCCCCCCCCCCCCC(=O)O [Palmitic]", "GC peak Area, %, Baseline / %": 18.45}
{"molecule": "CCCCCCCCCCCC(=O)O [Lauric]", "GC peak Area, %, Baseline / %": 0.16}
{"molecule": "CCCCCCCCCCCCCCCCCCCC(=O)O [Arachidic]", "GC peak Area, %, Baseline / %": 0.10}

# input Need GC peak Area, %, Baseline of CCCCC/C=C\C/C=C\CCCCCCCC(=O)O [Linoleic] , thanks.
# output 0.89

* * *

Test: Acid induced degradation at pH 2.5, gas chromatography
Type: physicochemical
Conditions: DHA preparation without lycopene
readout type: GC peak Area, Baseline

{"molecule": "CCCCC/C=C\\C/C=C\\C/C=C\\CCCCC(=O)O", "readout type": "GC peak Area, Baseline", "reported": "3,030"}

# input Query (molecule): CCCCCCCCCCCC(=O)O ; field requested: GC peak Area, Baseline
# output 1,718

# input Entry under review: CCC=CCC=CCC=CCC=CC/C=C\CCCC(=O)O [cis-5,8,11,14,17-eicosapentaenoic] . Reported GC peak Area, Baseline?
# output 11,447

* * *

Experiment: Acid induced degradation at pH 2.5, gas chromatography
Type: physicochemical
Conditions: DHA preparation without lycopene
readout type: GC peak Area, After 2 hours at pH 2.5
Answer with a number only.

{"compound": "CCCCC/C=C\\C/C=C\\C/C=C\\C/C=C\\CCCC(=O)O [Arachidonic]", "readout type": "GC peak Area, After 2 hours at pH 2.5", "reported": 5323}

# input Can you share its GC peak Area, After 2 hours at pH 2.5? I mean this compound: CCC=CCC=CCC=CCC=CC/C=C\CCCC(=O)O [cis-5,8,11,14,17-eicosapentaenoic]
# output 6679

* * *

Assay: Acid induced degradation at pH 2.5, gas chromatography
Type: physicochemical
Settings: DHA preparation without lycopene
Description: Briefly, 100 μl of serum and 2 ml of the stock solution were combined in screw-capped glass tubes. The tubes were capped and heated at 100 C for 60 min. The tubes were allowed to cool down to the room temperature and were extracted twice with 1 ml hexane. […] Temperature program, initial: 130 C with a 4 min hold; ramp: 4 C/min to 280 C with a 2 min hold. […] DHA concentrations were calculated on the basis of the standard concentrations. […]
// GC peak Area, Baseline lookup, one value per entry

Examples from the recorded data:
{"molecule": "CCCCCCCCCCCCCCCCCCCCCC(=O)O [Behenic]", "GC peak Area, Baseline": "1,096"}
{"molecule": "CCCCCCCCCCCCCCCCCCCCCCCC(=O)O [Lignoceric]", "GC peak Area, Baseline": "1,518"}

# input What value of GC peak Area, Baseline has been recorded for this entry: CCCCCCCCCCCCCCCCCCCC(=O)O [Arachidic]
# output 1,032
